Target: MCR (α-methylacyl-CoA racemase from Mycobacterium tuberculosis) (Mycobacterium tuberculosis)
Sequence (O06543 whole entry): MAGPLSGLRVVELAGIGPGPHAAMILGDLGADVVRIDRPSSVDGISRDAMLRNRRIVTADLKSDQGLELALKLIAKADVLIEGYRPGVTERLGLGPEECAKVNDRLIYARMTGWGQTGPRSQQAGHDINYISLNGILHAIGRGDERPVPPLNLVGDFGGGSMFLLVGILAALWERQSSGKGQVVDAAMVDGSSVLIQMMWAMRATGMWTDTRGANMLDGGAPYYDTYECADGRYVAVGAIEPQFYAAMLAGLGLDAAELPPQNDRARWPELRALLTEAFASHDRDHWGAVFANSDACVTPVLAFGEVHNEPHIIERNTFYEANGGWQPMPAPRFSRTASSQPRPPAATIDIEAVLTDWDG
Experiment: Colorimetric inhibition assay, dose-response curves
Conditions: pIC50, mean ± SEM, n = 3; colorimetric assay, 96 μM substrate, 3.12 nM MCR, 10 min pre-incubation
readoutLabel: pIC50
Numbers only, as −log10 of the molar value.

| compound | pIC50 |
| --- | --- |
| CC(C(=O)SCCNC(=O)CCNC(=O)C(O)C(C)(C)COP(=O)(O)OP(=O)(O)OCC1OC(n2cnc3c(N)ncnc32)C(O)C1OP(=O)(O)O)c1cccc(Oc2ccccc2)c1 (racemic) | 4.82 |
| CC(C)Cc1ccc(C(C)C(=O)SCCNC(=O)CCNC(=O)C(O)C(C)(C)COP(=O)(O)OP(=O)(O)OCC2OC(n3cnc4c(N)ncnc43)C(O)C2OP(=O)(O)O)cc1 (racemic) | 5.05 |
| COc1ccc2cc(C(C)C(=O)SCCNC(=O)CCNC(=O)C(O)C(C)(C)COP(=O)(O)OP(=O)(O)OCC3OC(n4cnc5c(N)ncnc54)C(O)C3OP(=O)(O)O)ccc2c1 (stereo not shown) | 4.77 |
| CC(C(=O)SCCNC(=O)CCNC(=O)C(O)C(C)(C)COP(=O)(O)OP(=O)(O)OCC1OC(n2cnc3c(N)ncnc32)C(O)C1OP(=O)(O)O)c1cccc(C(=O)c2ccccc2)c1 (stereo not shown) | 4.50 |

Kindly consider the entry below.
Sample CCCCCCCCC(C)C(=O)SCCNC(=O)CCNC(=O)[C@H](O)C(C)(C)COP(=O)(O)OP(=O)(O)OC[C@H]1O[C@@H](n2cnc3c(N)ncnc32)[C@H](O)[C@@H]1OP(=O)(O)O (stereo partly shown) — what was its pIC50?
4.23
